B1: glmS ribozyme (parent)
chain: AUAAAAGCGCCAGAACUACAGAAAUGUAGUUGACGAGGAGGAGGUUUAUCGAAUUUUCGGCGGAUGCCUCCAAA

Variants of: B1
Experiment: kcat; higher = faster cleavage; RNA array
Details: with glucosamine-6-phosphate
This sample holds only a part of the variants without activity.
MEASUREMENT_NAME: kcat

U54G U56A U69G = 5.38e-05 s⁻¹
A42U U45G = 0.00034 s⁻¹
A52G A64C C70A = 1.92e-05 s⁻¹
C16U G41A = 0.00129 s⁻¹
U46G = 0.0111 s⁻¹
G9U U31C = < 1e-05 s⁻¹

Q) Item U45A G59U has what recorded kcat?
A) 0.00047 s⁻¹

Q) Now try A48G C58U .
A) 1.71e-05 s⁻¹

Q) Now try U45C C68G .
A) 9.46e-05 s⁻¹

Q) Now try C16A A48U .
A) < 1e-05 s⁻¹

Q) Now try A42C G66U .
A) 1.53e-05 s⁻¹

Q) Now try G40C U55A .
A) 9.7e-05 s⁻¹

Q) Now try C10U G35A .
A) 1.32e-05 s⁻¹

Q) Now try A14C U45G .
A) 0.00127 s⁻¹

Q) Now try U46C U57C .
A) 9.95e-05 s⁻¹

Q) Now try U45C U65G .
A) 0.000191 s⁻¹

Q) Now try A12U G37A .
A) 0.0147 s⁻¹

Q) Now try A15C A42G A53C .
A) 0.00239 s⁻¹

Q) Now try U65C C68U .
A) 2.26e-05 s⁻¹

Where do these numbers come from? They come from the supplement of paper PMC7125110.
